B1: Pre-mRNA-processing factor 40 homolog B, residues 274 to 332; numbered along this chain, Q6NWY9 (parent)
chain: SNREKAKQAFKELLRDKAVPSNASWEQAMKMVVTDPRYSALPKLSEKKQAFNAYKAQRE

- Variants of: B1
- Method: abundance fitness (aPCA) (normalised: wild type 0, dead -1); higher = more abundant; growth selection in yeast, the domain comes from the species named
- Details: Homo sapiens
I'd be grateful if you could share measured abundance fitness for these entries.
Numbers only.

N2K; -0.139
A40S; 0.005
N52Y; -0.21
Q57L; -0.527
M29Q; 0.047
Y38Q; -0.284
S21E; -0.054
N22Q; -0.217
R37E; -0.479
W25K; -0.221

Please supply abundance fitness for each of the following items, keeping them in order.
1. E46I
2. K5I

[-0.872, -0.171]
